Quick reference: AC50 of the listed items.
Target: Type-1 angiotensin II receptor (Homo sapiens, UniProt P30556); note: assay procedure not described here
Sequence (P30556 whole entry): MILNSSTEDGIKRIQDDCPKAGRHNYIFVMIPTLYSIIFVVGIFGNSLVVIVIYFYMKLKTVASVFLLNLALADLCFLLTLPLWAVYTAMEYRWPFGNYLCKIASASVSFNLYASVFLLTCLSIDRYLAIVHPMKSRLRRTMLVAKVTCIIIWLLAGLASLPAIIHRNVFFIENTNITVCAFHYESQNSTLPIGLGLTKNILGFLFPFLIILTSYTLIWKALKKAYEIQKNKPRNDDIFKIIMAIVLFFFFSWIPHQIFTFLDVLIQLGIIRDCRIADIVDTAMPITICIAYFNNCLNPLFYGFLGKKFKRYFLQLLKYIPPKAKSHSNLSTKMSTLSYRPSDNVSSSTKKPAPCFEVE

The examples below pair each entry with its known result.
>  <molecule>
CCCCOC(=O)c1ccc(N)cc1 [BUTAMBEN]

>  <system-under-test>
Type-1 angiotensin II receptor (Homo sapiens, UniProt P30556); note: assay procedure not described here

>  <AC50>
> 30 µM

$$$$
>  <molecule>
CC1=C(C(=O)O)N2C(=O)[C@@H](NC(=O)[C@H](N)C3=CCC=CC3)[C@H]2SC1 [CEPHRADINE]

>  <system-under-test>
Type-1 angiotensin II receptor (Homo sapiens, UniProt P30556); note: assay procedure not described here

>  <AC50>
> 30 µM

$$$$
>  <molecule>
O=C(O)[C@H]1/C(=C/CO)O[C@@H]2CC(=O)N21 [CLAVULANIC ACID]

>  <system-under-test>
Type-1 angiotensin II receptor (Homo sapiens, UniProt P30556); note: assay procedure not described here

>  <AC50>
> 30 µM

$$$$
>  <molecule>
Cc1c(C)c2c(c(C)c1O)CCC(C)(COc1ccc(CC3SC(=O)NC3=O)cc1)O2 (stereo not drawn) [TROGLITAZONE]

>  <system-under-test>
Type-1 angiotensin II receptor (Homo sapiens, UniProt P30556); note: assay procedure not described here

>  <AC50>
15.5 µM

$$$$
>  <molecule>
Cc1cccc(Nc2ccncc2S(=O)(=O)NC(=O)NC(C)C)c1 [TORSEMIDE]

>  <system-under-test>
Type-1 angiotensin II receptor (Homo sapiens, UniProt P30556); note: assay procedure not described here

>  <AC50>
> 10 µM

$$$$
>  <molecule>
COc1nc(C)nc(Cl)c1N=C1NCCN1 [MOXONIDINE]

>  <system-under-test>
Type-1 angiotensin II receptor (Homo sapiens, UniProt P30556); note: assay procedure not described here

>  <AC50>
> 30 µM

$$$$
>  <molecule>
CCCCOC(=O)C(=O)Nc1cccc(-c2nnn[nH]2)c1 [TAZANOLAST]

>  <system-under-test>
Type-1 angiotensin II receptor (Homo sapiens, UniProt P30556); note: assay procedure not described here

>  <AC50>
> 30 µM

$$$$
>  <molecule>
CC[N+](CC)(CCNC(=O)C(=O)NCC[N+](CC)(CC)Cc1ccccc1Cl)Cc1ccccc1Cl [AMBENONIUM]

>  <system-under-test>
Type-1 angiotensin II receptor (Homo sapiens, UniProt P30556); note: assay procedure not described here

>  <AC50>
> 30 µM

$$$$

The molecule `O=C(O)c1ccc2nc(-c3cc(Cl)cc(Cl)c3)oc2c1` , tested on Type-1 angiotensin II receptor (Homo sapiens, UniProt P30556), showed AC50 of > 30 µM

The molecule C[C@H](Cn1cnc2c(N)ncnc21)OCP(=O)(O)O [TENOFOVIR ANHYDROUS] , tested on Type-1 angiotensin II receptor (Homo sapiens, UniProt P30556), showed AC50 of > 30 µM

The molecule Cc1ccc(S(=O)(=O)NC(=O)N[C@H]2[C@H]3CC[C@@](C)([C@H]2O)C3(C)C)cc1 [GLIBORNURIDE] , tested on Type-1 angiotensin II receptor (Homo sapiens, UniProt P30556), showed AC50 of > 30 µM

The molecule CC(=O)Oc1cccc2c1C(=O)c1c(OC(C)=O)cc(C(=O)O)cc1C2=O [DIACEREIN] , tested on Type-1 angiotensin II receptor (Homo sapiens, UniProt P30556), showed AC50 of > 30 µM

The molecule COc1cc(N)cn[n+]1-c1ccccc1 [AMEZINIUM METILSULFATE] , tested on Type-1 angiotensin II receptor (Homo sapiens, UniProt P30556), showed AC50 of > 30 µM
